- EXPERIMENTAL_TARGET: human MC3R (human, UniProt P41968 1-323)
- Sequence (P41968 whole entry): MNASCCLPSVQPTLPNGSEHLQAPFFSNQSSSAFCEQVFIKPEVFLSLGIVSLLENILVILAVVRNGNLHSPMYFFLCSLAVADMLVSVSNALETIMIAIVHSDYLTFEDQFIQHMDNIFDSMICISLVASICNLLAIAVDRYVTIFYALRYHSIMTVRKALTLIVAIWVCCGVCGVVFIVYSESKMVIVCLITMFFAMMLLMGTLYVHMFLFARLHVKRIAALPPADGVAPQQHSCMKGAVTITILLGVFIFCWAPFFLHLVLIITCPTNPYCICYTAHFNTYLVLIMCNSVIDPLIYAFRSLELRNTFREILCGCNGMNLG
- ASSAY_REMARKS: cell-based or functional assay
Positions of bridges follow the written chain, without caps; N, C: chain ends. Non-standard residues stand in square brackets, D forms with d. dPhe(4-Br) = N[C@H](Cc1ccc(Br)cc1)C(=O)O
This listing pairs binders with measured cAMP EC50.

>  <BINDER>
Ac-RC[dA]R[dPhe(4-Br)]RWC-NH2 (disulfide 2-8) [CTX-2205]

>  <cAMP EC50 (nM)>
18

$$$$
>  <BINDER>
Ac-RC[dA]R[dPhe(4-Br)]R[dW]CKP-NH2 (disulfide 2-8; SMILES CC(=O)N[C@@H](CCCNC(=N)N)C(=O)N[C@H]1CSSC[C@@H](C(=O)N[C@@H](CCCCN)C(=O)N2CCC[C@H]2C(N)=O)NC(=O)[C@@H](Cc2c[nH]c3ccccc23)NC(=O)[C@H](CCCNC(=N)N)NC(=O)[C@@H](Cc2ccc(Br)cc2)NC(=O)[C@H](CCCNC(=N)N)NC(=O)[C@@H](C)NC1=O) [CTX-1217]

>  <cAMP EC50 (nM)>
4

$$$$
>  <BINDER>
Ac-RC[dA]R[dPhe(4-Br)]R[dW]C-NH2 (disulfide 2-8) [CTX-1214]

>  <cAMP EC50 (nM)>
4.1

$$$$
